normalized growth values, listed per item
assay: chemical genetic growth profiling, strain panel (AID 1159580);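 also: tested at 20 µM; growth read once vehicle control cultures reached saturation at 30 °C; 1 = growth at the plate median or of vehicle wells; lower values mean less growth of the strain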; details: S. cerevisiae deletion strains, growth OD, locus YJL187C, strain SWE1, hits give low values
In all, about 5,500 compounds went through this assay and about 2,000 (36%) were called active. Roughly 18% stayed inconclusive and do not appear here. The list shows a part of the results.

Please review the entries below; each comes with its answer.
• O=C1C=C2C=C[C@@H]3C[C@@]2(O1)[C@H]1CCCCN31 = 0.984 (inactive)
• NC(CO)C(=O)NNCc1ccc(O)c(O)c1O (stereo not given) = 0.983 (inactive)
• CSC(=NS(=O)(=O)c1ccccc1)SC = 1 (inactive)
• COc1ccc(-c2coc3cc(OC)cc(OC)c3c2=O)cc1 = 0.988 (inactive)

Then there is this compound:
# query: normalized growth of entry `CC(C)(C)CC(C)(C)c1ccc(O)c(Cc2ccc(Cl)cc2Cl)c1`
1.01 (inactive)
